Provide the recorded Absorbed dose (AD average) Left colon for the entries that follow.
method: Extrapolated human dosimetry (OLINDA/EXM, ICRP-89 phantoms)
testParameters: ICRP 89 Adult Male, extrapolated
Report the figure in mGy/Mbq without appending any unit label.

Lookup: Consider the compound N#C[C@@H]1CC(F)(F)CN1C(=O)CNC(=O)c1ccnc2ccc(OCCCCNC(=O)CC[C@H](NC(=O)CN3CCN(CC(=O)[O-])CCN(CC(=O)[O-])CCN(CC(=O)[O-])CC3)C(=O)NCCCCOc3ccc4nccc(C(=O)NCC(=O)N5CC(F)(F)C[C@H]5C#N)c4c3)cc12.[177Lu+3] [[^177Lu]Lu-DO3A.Glu.(FAPI)2] . State its measured Absorbed dose (AD average) Left colon.
Found: 5.77E-02

Lookup: Tell me its Absorbed dose (AD average) Left colon given N#C[C@@H]1CC(F)(F)CN1C(=O)CNC(=O)c1ccnc2ccc(OCCCCNC(=O)CC[C@H](NC(=O)CCC(C(=O)O)N3CCN(CC(=O)[O-])CCN(CC(=O)[O-])CCN(CC(=O)[O-])CC3)C(=O)NCCCCOc3ccc4nccc(C(=O)NCC(=O)N5CC(F)(F)C[C@H]5C#N)c4c3)cc12.[161Tb+3] (stereo partly shown) [[^161Tb]Tb-DOTAGA.Glu.(FAPI)2] as the entry.
Found: 1.18E-01

Lookup: Return the recorded Absorbed dose (AD average) Left colon value; entry: N#C[C@@H]1CC(F)(F)CN1C(=O)CNC(=O)c1ccnc2ccc(OCCCCNC(=O)CC[C@H](NC(=O)CN3CCN(CC(=O)[O-])CCN(CC(=O)[O-])CCN(CC(=O)[O-])CC3)C(=O)NCCCCOc3ccc4nccc(C(=O)NCC(=O)N5CC(F)(F)C[C@H]5C#N)c4c3)cc12.[161Tb+3] [[^161Tb]Tb-DO3A.Glu.(FAPI)2]
Found: 2.85E-02

Lookup: Give the value of Absorbed dose (AD average) Left colon reported for the following: N#C[C@@H]1CC(F)(F)CN1C(=O)CNC(=O)c1ccnc2ccc(OCCCCNC(=O)CC[C@H](NC(=O)CCC(C(=O)O)N3CCN(CC(=O)[O-])CCN(CC(=O)[O-])CCN(CC(=O)[O-])CC3)C(=O)NCCCCOc3ccc4nccc(C(=O)NCC(=O)N5CC(F)(F)C[C@H]5C#N)c4c3)cc12.[177Lu+3] (stereo partly shown) [[^177Lu]Lu-DOTAGA.Glu.(FAPI)2]
Found: 8.56E-02
